Target: USP19 (UniProt O94966)
Sequence (whole entry): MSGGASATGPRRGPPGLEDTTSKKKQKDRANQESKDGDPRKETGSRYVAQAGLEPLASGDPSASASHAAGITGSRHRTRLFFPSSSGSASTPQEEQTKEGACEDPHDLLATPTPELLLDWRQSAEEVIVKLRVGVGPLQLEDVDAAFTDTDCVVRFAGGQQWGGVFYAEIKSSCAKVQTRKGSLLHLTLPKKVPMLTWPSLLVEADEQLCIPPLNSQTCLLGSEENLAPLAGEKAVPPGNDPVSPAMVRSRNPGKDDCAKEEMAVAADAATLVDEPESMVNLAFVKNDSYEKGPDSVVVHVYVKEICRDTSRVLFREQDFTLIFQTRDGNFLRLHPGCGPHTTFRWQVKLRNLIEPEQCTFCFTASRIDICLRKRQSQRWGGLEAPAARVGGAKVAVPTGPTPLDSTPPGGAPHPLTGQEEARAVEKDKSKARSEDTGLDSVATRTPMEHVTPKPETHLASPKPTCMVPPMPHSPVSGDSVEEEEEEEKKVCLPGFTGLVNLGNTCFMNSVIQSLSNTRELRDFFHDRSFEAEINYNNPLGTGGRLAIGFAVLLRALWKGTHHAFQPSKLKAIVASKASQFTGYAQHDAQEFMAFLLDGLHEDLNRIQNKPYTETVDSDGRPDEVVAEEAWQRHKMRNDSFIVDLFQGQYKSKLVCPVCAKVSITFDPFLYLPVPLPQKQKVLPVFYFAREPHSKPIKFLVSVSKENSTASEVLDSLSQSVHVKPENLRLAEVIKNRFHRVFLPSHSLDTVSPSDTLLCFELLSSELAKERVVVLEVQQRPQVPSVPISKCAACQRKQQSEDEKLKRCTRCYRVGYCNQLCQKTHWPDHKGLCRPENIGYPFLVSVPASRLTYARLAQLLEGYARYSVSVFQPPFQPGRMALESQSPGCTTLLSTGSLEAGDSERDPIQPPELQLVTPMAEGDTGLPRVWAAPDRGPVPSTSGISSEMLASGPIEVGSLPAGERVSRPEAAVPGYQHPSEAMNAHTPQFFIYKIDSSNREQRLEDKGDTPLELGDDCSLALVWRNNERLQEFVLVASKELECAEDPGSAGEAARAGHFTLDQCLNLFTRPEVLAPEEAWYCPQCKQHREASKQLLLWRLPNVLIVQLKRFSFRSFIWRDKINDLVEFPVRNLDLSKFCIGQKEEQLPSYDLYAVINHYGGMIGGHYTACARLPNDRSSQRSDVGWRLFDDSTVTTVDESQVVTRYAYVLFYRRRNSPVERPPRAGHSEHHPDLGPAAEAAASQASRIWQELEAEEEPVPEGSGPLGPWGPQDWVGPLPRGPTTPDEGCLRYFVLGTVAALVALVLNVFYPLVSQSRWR
Assay: log2 ratio of Biotin-Ahx-Ub-VS probe labelling (fragment/DMSO); higher = less target engagement (more negative = stronger competition), active = hit call of the paper (q ≤ 0.05, log2 ratio ≤ -1)
Conditions: compound concentration: 200 uM; treatment time: 3 h
Please go through the items and note down their log2 ratio of Biotin-Ahx-Ub-VS probe labelling.
Form: value (number only, do not type unit).

Exercise: Look up log2 ratio of Biotin-Ahx-Ub-VS probe labelling for this molecule: `O=C(CCl)Nc1ccc(Cl)c(F)c1`
Solution: -0.486

Exercise: Look up log2 ratio of Biotin-Ahx-Ub-VS probe labelling for this molecule: `N#Cc1cnn(-c2ccccc2)c1NC(=O)CCl`
Solution: -0.232

Exercise: Look up log2 ratio of Biotin-Ahx-Ub-VS probe labelling for this molecule: Cc1ccc(N(C(=O)CCl)C2C=CS(=O)(=O)C2)cc1 (stereo unspecified)
Solution: 0.0392

Exercise: Look up log2 ratio of Biotin-Ahx-Ub-VS probe labelling for this molecule: O=C(CCl)N1CCCC1c1ccsc1 (stereo unspecified)
Solution: -0.475

Exercise: Look up log2 ratio of Biotin-Ahx-Ub-VS probe labelling for this molecule: `Cc1noc(C)c1CNC(=O)CCl`
Solution: -0.666

Exercise: Look up log2 ratio of Biotin-Ahx-Ub-VS probe labelling for this molecule: `N#Cc1ccc(Cl)cc1NC(=O)CCl`
Solution: -0.121

Exercise: Look up log2 ratio of Biotin-Ahx-Ub-VS probe labelling for this molecule: `COc1ccc(-c2csc(NC(=O)CCl)n2)cc1`
Solution: -0.674

Exercise: Look up log2 ratio of Biotin-Ahx-Ub-VS probe labelling for this molecule: `Cl.O=C(CCl)N1CCn2ncc(O)c2C1`
Solution: -0.754

Exercise: Look up log2 ratio of Biotin-Ahx-Ub-VS probe labelling for this molecule: `Cc1n[nH]c(=O)c2c(NC(=O)CCl)oc(C)c12`
Solution: -0.168

Exercise: Look up log2 ratio of Biotin-Ahx-Ub-VS probe labelling for this molecule: `CN(CCc1ncc(Br)cn1)C(=O)CCl.Cl`
Solution: -0.155

Exercise: Look up log2 ratio of Biotin-Ahx-Ub-VS probe labelling for this molecule: CC(NC(=O)CCl)c1csc(-c2ccccc2)n1.Cl (stereo unspecified)
Solution: -0.563

Exercise: Look up log2 ratio of Biotin-Ahx-Ub-VS probe labelling for this molecule: COCC1C=CCCN1C(=O)CCl (stereo unspecified)
Solution: -0.24

Exercise: Look up log2 ratio of Biotin-Ahx-Ub-VS probe labelling for this molecule: O=C(CCl)NC1CCOc2ccccc21 (stereo unspecified)
Solution: -0.918

Exercise: Look up log2 ratio of Biotin-Ahx-Ub-VS probe labelling for this molecule: `Cc1ncc2c(n1)CCN(C(=O)CCl)C2`
Solution: -0.479

Exercise: Look up log2 ratio of Biotin-Ahx-Ub-VS probe labelling for this molecule: Cc1ccc(N2CCC(NC(=O)CCl)C2=O)cc1 (stereo unspecified)
Solution: 0.0818

Exercise: Look up log2 ratio of Biotin-Ahx-Ub-VS probe labelling for this molecule: O=C(CCl)N1CCOC(c2cccc(F)c2)C1 (stereo unspecified)
Solution: -0.335
